# EXPERIMENTAL_SYSTEM: T1, Glycoprotein VI extracellular domain (Gln21-Lys267) (Homo sapiens, UniProt Q9HCN6 SEQ:1-247)
# T1 chain: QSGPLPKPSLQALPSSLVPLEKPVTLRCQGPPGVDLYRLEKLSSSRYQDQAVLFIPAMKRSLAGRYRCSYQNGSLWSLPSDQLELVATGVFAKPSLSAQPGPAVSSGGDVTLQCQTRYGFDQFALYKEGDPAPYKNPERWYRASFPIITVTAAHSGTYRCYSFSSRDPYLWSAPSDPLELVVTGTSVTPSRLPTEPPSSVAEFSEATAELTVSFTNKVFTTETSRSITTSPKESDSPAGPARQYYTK
# ASSAY_METHOD_TEXT: competition; 5' linker ligands assayed by competition
# CONDITION_NOTES: tags: C-terminal His6; R&D Systems 3627-GP

[
  {
    "BINDER": "GGGAGGACGGCGCGCCUGGCAUAAGCCUCCC (ssRNA, RB490 with 5' hexylamino linker) [RB508]",
    "Kd": "< 10 nM"
  }
]

All values here come from patent US20100311820.
